Target: human β3 adrenergic receptor (Homo sapiens, UniProt P13945)
Construct: expressed in transfected cells; host or cells: Chinese hamster ovary (CHO) cells, stably transfected
Sequence (P13945 whole entry): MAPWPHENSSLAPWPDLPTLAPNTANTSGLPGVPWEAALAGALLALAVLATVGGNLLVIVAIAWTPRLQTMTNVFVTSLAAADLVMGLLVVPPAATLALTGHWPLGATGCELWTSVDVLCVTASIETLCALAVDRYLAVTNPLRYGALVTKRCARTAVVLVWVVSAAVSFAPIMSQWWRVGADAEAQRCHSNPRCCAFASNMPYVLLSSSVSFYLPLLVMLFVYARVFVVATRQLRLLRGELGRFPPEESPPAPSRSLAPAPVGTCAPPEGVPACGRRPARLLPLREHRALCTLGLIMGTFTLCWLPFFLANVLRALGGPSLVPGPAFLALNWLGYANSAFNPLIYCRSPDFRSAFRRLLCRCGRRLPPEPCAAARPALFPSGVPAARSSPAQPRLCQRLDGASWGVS
Assay: Beta-3 agonist in vitro functional assay: cAMP production (LANCE TR-FRET) in CHO cells stably transfected with the cloned β3 receptor
Assay type: cell-based
Details: Table 10; Beta-3 agonist in vitro functional assay; read-out: Human β3 agonist functional activity
QUANTITY KIND: EC50

[[record]]
molecule = "CC(C(=O)N1[C@H]2CC[C@@H]1CC2)N1CCN(C(=O)c2ccc(C[C@@H]3CC[C@H]([C@H](O)c4ccccc4)N3)cc2)CC1 (stereo partly drawn) [Example 501]"
measured_target = "human β3 adrenergic receptor (Homo sapiens, UniProt P13945)"
quantity_kind = "EC50"
measured_result = "100 to 999 nM"

[[record]]
molecule = "COC[C@H](C)NC(=O)C(C)N1CCN(C(=O)c2ccc(C[C@@H]3CC[C@H]([C@H](O)c4ccccc4)N3)cc2)CC1 (stereo partly drawn) [Example 446]"
measured_target = "human β3 adrenergic receptor (Homo sapiens, UniProt P13945)"
quantity_kind = "EC50"
measured_result = "10 to 99.9 nM"

[[record]]
molecule = "CC(C(=O)N1CCc2nc(C3CC3)sc2C1)N1CCN(C(=O)c2ccc(C[C@@H]3CC[C@H]([C@H](O)c4ccccc4)N3)cc2)CC1 (stereo partly drawn) [Example 505]"
measured_target = "human β3 adrenergic receptor (Homo sapiens, UniProt P13945)"
quantity_kind = "EC50"
measured_result = "< 1 nM"

[[record]]
molecule = "CC(C(=O)N(C)CCC#N)N1CCN(C(=O)c2ccc(C[C@@H]3CC[C@H]([C@H](O)c4ccccc4)N3)cc2)CC1 (stereo partly drawn) [Example 521]"
measured_target = "human β3 adrenergic receptor (Homo sapiens, UniProt P13945)"
quantity_kind = "EC50"
measured_result = "10 to 99.9 nM"

[[record]]
molecule = "CC(C(=O)N1CCC(O)C1)N1CCN(C(=O)c2ccc(C[C@@H]3CC[C@H]([C@H](O)c4ccccc4)N3)cc2)CC1 (stereo partly drawn) [Example 477]"
measured_target = "human β3 adrenergic receptor (Homo sapiens, UniProt P13945)"
quantity_kind = "EC50"
measured_result = "100 to 999 nM"

[[record]]
molecule = "CC1CCN(C(=O)C(C)N2CCN(C(=O)c3ccc(C[C@@H]4CC[C@H]([C@H](O)c5ccccc5)N4)cc3)CC2)CC1 (stereo partly drawn) [Example 488]"
measured_target = "human β3 adrenergic receptor (Homo sapiens, UniProt P13945)"
quantity_kind = "EC50"
measured_result = "100 to 999 nM"

